FYI, the data here is from patent US5639783A.

# target.or.test.system: m-calpain (Rattus norvegicus)
# Construct: m-calpain was purified from rat brain; from tissue; host or cells: rat brain
# Sequence (Q07009 20-700 limits assumed): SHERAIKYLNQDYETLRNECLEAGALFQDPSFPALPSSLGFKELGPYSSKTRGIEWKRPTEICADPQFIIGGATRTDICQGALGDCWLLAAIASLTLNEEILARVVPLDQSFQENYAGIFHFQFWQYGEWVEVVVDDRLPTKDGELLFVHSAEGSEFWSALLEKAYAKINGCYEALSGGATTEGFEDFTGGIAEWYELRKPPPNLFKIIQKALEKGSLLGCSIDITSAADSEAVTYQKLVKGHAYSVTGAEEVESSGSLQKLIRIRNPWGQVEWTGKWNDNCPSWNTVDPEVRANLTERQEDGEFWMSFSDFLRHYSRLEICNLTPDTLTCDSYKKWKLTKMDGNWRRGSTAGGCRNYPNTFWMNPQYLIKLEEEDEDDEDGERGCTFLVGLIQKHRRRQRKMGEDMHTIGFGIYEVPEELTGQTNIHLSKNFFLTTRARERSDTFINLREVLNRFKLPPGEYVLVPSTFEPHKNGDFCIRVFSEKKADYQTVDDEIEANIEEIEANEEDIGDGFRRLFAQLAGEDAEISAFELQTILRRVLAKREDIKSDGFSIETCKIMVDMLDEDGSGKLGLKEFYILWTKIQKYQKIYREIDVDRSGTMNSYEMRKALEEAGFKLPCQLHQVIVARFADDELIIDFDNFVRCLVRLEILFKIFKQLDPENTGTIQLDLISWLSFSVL
# Sequence (Q64537 1-270 partner): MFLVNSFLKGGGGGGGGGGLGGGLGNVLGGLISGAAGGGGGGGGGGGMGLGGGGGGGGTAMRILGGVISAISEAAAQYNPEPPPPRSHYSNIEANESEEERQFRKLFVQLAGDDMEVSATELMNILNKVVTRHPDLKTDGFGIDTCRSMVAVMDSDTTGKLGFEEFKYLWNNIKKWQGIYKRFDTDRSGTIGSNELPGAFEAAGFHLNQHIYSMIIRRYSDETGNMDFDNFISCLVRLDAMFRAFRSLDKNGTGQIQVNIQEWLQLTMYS
# assay: Thiol protease inhibitory activity, m-calpain purified from rat brain
# Format: biochemical
# details: Table 3
measurement.label: pIC50
Quick note: pIC50 values are minus log10 of concentrations in mol/L.

Give the measured pIC50 of CC(C)C[C@H](NC(=O)OCc1ccccc1)C(=O)N[C@@H](CC1CCCCC1)C(=O)CSCc1ccco1 [109 (No. 238)] .
4.89

Would you kindly repeat that for CCCC[C@H](NC(=O)[C@H](CC(C)C)NC(=O)OCc1ccccn1)C(=O)CSCc1ccco1 [28 (No. 59)] ?
4.96

Would you kindly repeat that for CCCC[C@H](NC(=O)[C@H](CC(C)C)NC(=O)COc1ccc2ccccc2c1)C(=O)CSCc1ccco1 [53 (No. 115)] ?
5.21

Would you kindly repeat that for CC(C)C[C@H](NC(=O)C(C)Oc1ccccc1)C(=O)N[C@@H](Cc1ccccc1)C(=O)CSCc1ccco1 (stereo partly shown) [165 (No. 349)] ?
4.89

Would you kindly repeat that for CCCC[C@H](NC(=O)[C@H](CC(C)C)NC(=O)COc1ccccc1F)C(=O)CSCc1ccco1 [36 (No. 85)] ?
4.60

Would you kindly repeat that for CCCC[C@H](NC(=O)[C@H](CC(C)C)NC(=O)COc1ccc(Cl)cc1C)C(=O)CSCc1ccco1 [46 (No. 100)] ?
4.80

Would you kindly repeat that for CC(C)C[C@H](NC(=O)COc1ccccc1)C(=O)N[C@@H](CCc1ccccc1)C(=O)CSCc1ccco1 [206 (No. 543)] ?
4.82

###

Quick reference for IC50 among some compounds
# target.or.test.system: cathepsin B (Bos taurus, UniProt P07688)
Field: numeric (nM). Do not append units.

CC(C)C[C@H](NC(=O)Cc1csc2ccccc12)C(=O)N[C@@H](Cc1ccccc1)C(=O)CSCc1ccco1 [162 (No. 345)] | 5300
CC(C)C[C@H](NC(=O)Cc1cccc2ccccc12)C(=O)N[C@@H](Cc1ccccc1)C(=O)CSCc1ccco1 [159 (No. 333)] | 750
CC(C)C[C@H](NC(=O)OCc1ccccc1)C(=O)N[C@@H](Cc1ccccc1)C(=O)CN(C)Cc1ccco1 [191 (No. 479)] | 3500

Next, consider the following compound.
Give the measured IC50 of CCCC[C@H](NC(=O)[C@H](CC(C)C)NC(=O)COc1ccc(Cl)cc1Cl)C(=O)CSCc1ccco1 [42 (No. 92)] .
1900

###

# pIC50 per entry for cathepsin B (Bos taurus, UniProt P07688)
Quick note: pIC50 values are minus log10 of concentrations in mol/L.

// below: answered compounds
CCCC[C@H](NC(=O)[C@H](CC(C)C)NC(=O)OCC1CCCCC1)C(=O)CSCc1ccco1 | 6.85
CC(C)C[C@H](NC(=O)Cc1ccc2ccccc2c1)C(=O)N[C@@H](Cc1ccccc1)C(=O)CSCc1ccco1 | 5.48
CCCC[C@H](NC(=O)[C@H](CC(C)C)NC(=O)c1cc2ccccc2o1)C(=O)CSCc1ccco1 | 7.30

Give the measured pIC50 of "CCCC[C@H](NC(=O)[C@H](CC(C)C)NC(=O)COc1ccccc1C)C(=O)CSCc1ccco1" .
6.77

Would you kindly repeat that for CC(C)C[C@H](NC(=O)C(C)Oc1ccccc1)C(=O)N[C@@H](Cc1ccccc1)C(=O)CSCc1ccco1 (stereo partly shown) ?
5.15

Would you kindly repeat that for "CCCC[C@H](NC(=O)[C@H](CC(C)C)NC(=O)c1cccc2ccccc12)C(=O)CSCc1ccco1" ?
5.30

Would you kindly repeat that for "CCCC[C@H](NC(=O)[C@H](CC(C)C)NC(=O)COc1ccc2ccccc2c1)C(=O)CSCc1ccco1" ?
4.96

###

# target.or.test.system: m-calpain (Rattus norvegicus, UniProt Q07009)
# Construct: m-calpain was purified from rat brain; from tissue; host or cells: rat brain
# assay: Thiol protease inhibitory activity, m-calpain purified from rat brain
# Assay type: biochemical
# details: Table 4
param class (str): category from IC50; see ranges low-valued (below 2 µM), mid-valued (2 µM to below 4 µM), high-valued (4 µM or more)

CCCC[C@H](NC(=O)[C@H](CC(C)C)NC(=O)OCc1ccccc1)C(=O)CSCc1ccncc1 | high-valued
CCCC[C@H](NC(=O)[C@H](CC(C)C)NC(=O)COc1ccc(OC)cc1)C(=O)CSCc1ccco1 | low-valued
CCCC[C@H](NC(=O)[C@H](CC(C)C)NC(=O)c1ccccc1C)C(=O)CSCc1ccco1 | high-valued
CCCC[C@H](NC(=O)[C@H](CC(C)C)NC(=O)c1c(F)cccc1F)C(=O)CSCc1ccco1 | low-valued
CCCC[C@H](NC(=O)[C@H](CC(C)C)NC(=O)c1cc(F)c(F)c(F)c1F)C(=O)CSCc1ccco1 | mid-valued
CCCC[C@H](NC(=O)[C@H](CC(C)C)NC(=O)c1ccc(F)c(F)c1F)C(=O)CSCc1ccco1 | high-valued
CCCC[C@H](NC(=O)[C@H](CC(C)C)NC(=O)C1CCCCC1)C(=O)CSCc1ccco1 | mid-valued
CCCC[C@H](NC(=O)[C@H](CC(C)C)NC(=O)COc1ccccc1OC)C(=O)CSCc1ccco1 | low-valued

Consider the record given below.
Classify this molecule: CC(C)C[C@H](NC(=O)OCc1ccccc1)C(=O)N1CCC[C@H]1C(=O)CSCc1ccco1 [Ref. Ex. No. 3, reference compound]
high-valued

###

# target.or.test.system: UniProt:P07154
# Sequence (P07154 114-334): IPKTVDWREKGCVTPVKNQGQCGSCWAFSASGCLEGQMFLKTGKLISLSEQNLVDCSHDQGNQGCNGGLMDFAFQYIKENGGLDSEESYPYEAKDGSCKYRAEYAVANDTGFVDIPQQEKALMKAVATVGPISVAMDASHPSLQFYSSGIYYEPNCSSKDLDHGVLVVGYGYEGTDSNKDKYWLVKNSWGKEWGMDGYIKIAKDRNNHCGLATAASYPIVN
pIC50: −log10 of the molar value.
Is pIC50 at least 7? Then Criterion met. If not, Criterion not met.

CCC(C)[C@H](NC(=O)OCC1CCCCC1)C(=O)N[C@@H](Cc1ccccc1)C(=O)CSCc1ccco1 (stereo partly shown) | Criterion met
CC(C)C[C@H](NC(=O)OCc1ccccn1)C(=O)N[C@@H](Cc1ccccc1)C(=O)CSCc1ccco1 | Criterion not met

Entry "CCCC[C@H](NC(=O)[C@H](CC(C)C)NC(=O)c1ccc2ccccc2c1)C(=O)CSCc1ccco1" : is its pIC50 no less than 7?
Criterion not met

Would you kindly repeat that for "CCCC[C@H](NC(=O)[C@H](CC(C)C)NC(=O)COc1c(Cl)cc(Cl)cc1Cl)C(=O)CSCc1ccco1" ?
Criterion met

Would you kindly repeat that for "CCCC[C@H](NC(=O)[C@H](CC(C)C)NC(=O)COc1ccc(F)cc1)C(=O)CSCc1ccco1" ?
Criterion not met

Would you kindly repeat that for "CCCC[C@H](NC(=O)[C@H](CC(C)C)NC(=O)CSc1ccccc1)C(=O)CSCc1ccco1" ?
Criterion not met

Would you kindly repeat that for "CCCC[C@H](NC(=O)[C@H](CC(C)C)NC(=O)c1cc(=O)c2ccccc2o1)C(=O)CSCc1ccco1" ?
Criterion met

###

# target.or.test.system: papain (Carica papaya)
# Sequence (P00784 134-345): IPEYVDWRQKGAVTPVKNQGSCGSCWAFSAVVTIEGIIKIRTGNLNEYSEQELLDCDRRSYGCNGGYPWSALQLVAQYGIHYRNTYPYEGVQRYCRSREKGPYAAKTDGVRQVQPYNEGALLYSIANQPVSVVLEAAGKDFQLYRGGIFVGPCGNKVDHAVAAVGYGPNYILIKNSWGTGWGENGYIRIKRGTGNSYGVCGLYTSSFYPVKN
# assay: Thiol protease inhibitory activity, papain (P-3125, Sigma)
# Type: biochemical
measurement.label: pIC50
Quick note: pIC50 values are minus log10 of concentrations in mol/L.

// below: answered compounds
CC(C)C[C@H](NC(=O)COc1ccccc1)C(=O)N[C@@H](CC1CCCCC1)C(=O)CSCc1ccco1 [110 (No. 240)] | 4.68
CCCC[C@H](NC(=O)[C@H](CC(C)C)NC(=O)CSc1ccccc1)C(=O)CSCc1ccco1 [49 (No. 107)] | 7.40
CSCC(=O)[C@H](CCc1ccccc1)NC(=O)[C@H](CC(C)C)NC(=O)COc1ccccc1 [203 (No. 536)] | 5.36
CC(C)C[C@H](NC(=O)COc1ccccc1)C(=O)N[C@@H](Cc1ccc(Cl)cc1)C(=O)CSCc1ccco1 [197 (No. 511)] | 4.89
CCCC[C@H](NC(=O)[C@H](CC(C)C)NC(=O)Cc1ccccc1)C(=O)CSCc1ccco1 [30 (No. 66)] | 6.82
CCCC[C@H](NC(=O)[C@H](CC(C)C)NC(=O)COc1ccccc1)C(=O)CSCc1ccco1 [3 (No. 82)] | 6.59

Could you share what pIC50 was measured for CCCC[C@H](NC(=O)[C@H](CC(C)C)NC(=O)COc1ccccc1)C(=O)C[S+]([O-])Cc1ccco1 (stereo partly shown) [4 (No. 83)] , tested on papain (Carica papaya)?
6.68

Would you kindly repeat that for CCCC[C@H](NC(=O)[C@H](CC(C)C)NC(=O)c1cc(=O)c2ccccc2o1)C(=O)CSCc1ccco1 [94 (No. 188)] ?
6.11

Would you kindly repeat that for CC(C)C[C@H](NC(=O)COc1ccccc1)C(=O)N[C@@H](Cc1ccccc1)C(=O)CSCc1ccco1 [164 (No. 348)] ?
4.46

Would you kindly repeat that for CC(C)C[C@H](NC(=O)COc1ccccc1)C(=O)N[C@@H](CCc1ccccc1)C(=O)CSCc1ccco1 [206 (No. 543)] ?
5.22
